All figures here come from ChEMBL document CHEMBL4229525.

experiment: Antiangiogenic index, ratio of LC100 for 24 to 72 hrs post fertilized zebra fish embryo harboring fli1:EGFP to MEC for antiangiogenic activity in 24 to 72 hrs post fertilized zebra fish embryo harboring fli1:EGFP; type: toxicity, organism-based, Danio rerio; details: fli1:EGFP transgenic, zebrafish, in vivo
Each entry below lists one item and its recorded selectivity ratio value.

{"columns": ["item smiles", "relational operator", "selectivity ratio"],
 "data": [
  ["O=C(COc1c(OCc2ccccc2)cc2oc(-c3ccccc3)cc(=O)c2c1O)N(CCO)CCO", "=", 2],
  ["CN1CCN(C(=O)COc2c(O)cc3oc(-c4ccccc4)cc(=O)c3c2O)CC1", "=", 5],
  ["O=c1cc(-c2ccccc2)oc2cc(O)c(OCCCCCNCCO)c(O)c12", "=", 4],
  ["O=c1cc(-c2ccccc2)oc2cc(OCCCO)c(O)c(O)c12", ">", 2]
]}
